Attribution: ChEMBL document CHEMBL1122430

Test system: Human alphaherpesvirus 2
experimental details: Antiherpetic activity against HSV-2
Assay type: functional
assay conditions: Human alphaherpesvirus 2; read-out: ED50 (the source's name)
pEC50: −log10 of the molar value.
quantity name: pEC50

1) Nc1nc(=O)n([C@@H]2O[C@H](CO)[C@@H](O)[C@@H]2Br)cc1I    5.66
2) Nc1nc(=O)n([C@@H]2O[C@H](CO)[C@@H](O)[C@@H]2Cl)cc1I    7.05
3) O=c1[nH]c(=O)n([C@H]2O[C@@H](CO)[C@H](O)[C@H]2F)cc1Br    7.15
4) O=c1[nH]c(=O)n([C@@H]2O[C@H](CO)[C@@H](O)[C@H]2F)cc1I    7.26
5) Nc1ccn([C@@H]2O[C@H](CO)[C@@H](O)[C@@H]2F)c(=O)n1    6.52
6) Cc1cn([C@@H]2O[C@H](CO)[C@@H](O)[C@@H]2Cl)c(=O)nc1N    6.66
7) Cc1cn([C@@H]2O[C@H](CO)[C@@H](O)[C@@H]2Br)c(=O)nc1N    4.58
8) Nc1nc(=O)n([C@H]2O[C@@H](CO)[C@H](O)[C@H]2F)cc1Br    7.70
